Tested on: Escherichia coli N10
Assay: MIC, standard agar-dilution assay
Type: cell-based
PARAMETER MEASURED: MIC

Some entries whose results are on file:
MOLECULE	MIC
CCCCCCCCCCNC1(C)CC(OC2C(Oc3c4cc5cc3Oc3ccc(cc3Cl)C(O)C(NC(=O)C(CC(C)C)[N+](C)(C)C)C(=O)NC(CC(N)=O)C(=O)NC5C(=O)NC3C(=O)NC(C(=O)NC(C(=O)[O-])c5cc(O)cc(O)c5-c5cc3ccc5O)C(O)c3ccc(c(Cl)c3)O4)OC(CO)C(O)C2O)OC(C)C1O (stereo not shown) [Compound 124, N^van --(n-decyl)-M43A]	> 64 µg/mL
CCCCNC1(C)CC(OC2C(Oc3c4cc5cc3Oc3ccc(cc3Cl)C(O)C(NC(=O)C(CC(C)C)N(C)CCCC)C(=O)NC(CC(N)=O)C(=O)NC5C(=O)NC3C(=O)NC(C(=O)NC(C(=O)O)c5cc(O)cc(O)c5-c5cc3ccc5O)C(O)c3ccc(c(Cl)c3)O4)OC(CO)C(O)C2O)OC(C)C1O (stereo not shown)	> 128 µg/mL
CCCCCCNC1(C)CC(OC2C(Oc3c4cc5cc3Oc3ccc(cc3Cl)C(O)C3NC(=O)C(NC(=O)C5NC(=O)C(CC(N)=O)NC(=O)C(NC(=O)C(CC(C)C)NC)C(O)c5ccc(c(Cl)c5)O4)c4ccc(O)c(c4)-c4c(O)cc(O)cc4C(C(=O)O)NC3=O)OC(CO)C(O)C2O)OC(C)C1O (stereo not shown)	> 128 µg/mL

// next item, MIC requested
Query: Return value of MIC for input CCCCCCCCCCCCNC1(C)CC(OC2C(Oc3c4cc5cc3Oc3ccc(cc3Cl)C(O)C3NC(=O)C(NC(=O)C5NC(=O)C(CC(N)=O)NC(=O)C(NC(=O)C(CC(C)C)NC)C(O)c5ccc(c(Cl)c5)O4)c4ccc(O)c(c4)-c4c(O)cc(O)cc4C(C(=O)O)NC3=O)OC(CO)C(O)C2O)OC(C)C1O (stereo not shown) , no commentary.
Result: > 128 µg/mL

----------
System: Haemophilus influenzae C.L.
Test: MIC, standard agar-dilution assay
Format: cell-based
PARAMETER MEASURED: MIC (µg/mL)
Answers are plain numbers, in µg/mL.

Take a look at these entries with their results.
MOLECULE	TARGET UNDER TEST	MIC / µg/mL
CCCCCCCCCCNC1(C)CC(OC2C(Oc3c4cc5cc3Oc3ccc(cc3Cl)C(O)C3NC(=O)C(NC(=O)C5NC(=O)C(CC(N)=O)NC(=O)C(NC(=O)C(N)CC(C)C)C(O)c5ccc(c(Cl)c5)O4)c4ccc(O)c(c4)-c4c(O)cc(O)cc4C(C(=O)O)NC3=O)OC(CO)C(O)C2O)OC(C)C1O (stereo not shown) [Compound 26, N^van --(n-decyl)-A51568A]	Haemophilus influenzae C.L.	128
CCCCCCCCCCNC1(C)CC(OC2C(Oc3c4cc5cc3Oc3ccc(cc3Cl)C(O)C3NC(=O)C(NC(=O)C5NC(=O)C(CC(N)=O)NC(=O)C(NC(=O)C(CC(C)C)NC)C(O)c5ccc(c(Cl)c5)O4)c4ccc(O)c(c4)-c4c(O)cc(O)cc4C(C(=O)O)NC3=O)OC(CO)C(O)C2O)OC(C)C1O (stereo not shown)	Haemophilus influenzae C.L.	128

From here, focus on the item given below.
Query: Find the measured MIC of CCCCCCCNC1(C)CC(OC2C(Oc3c4cc5cc3Oc3ccc(cc3Cl)C(O)C3NC(=O)C(NC(=O)C5NC(=O)C(CC(N)=O)NC(=O)C(NC(=O)C(CC(C)C)NC)C(O)c5ccc(c(Cl)c5)O4)c4ccc(O)c(c4)-c4c(O)cc(O)cc4C(C(=O)O)NC3=O)OC(CO)C(O)C2O)OC(C)C1O (stereo not shown) with Haemophilus influenzae C.L. as test system.
Result: 128

Just for reference, patent US4698327A is where these values come from.
